# Test system: Plasmodium berghei
# assay-protocol: Luciferase/luciferin-expressing antifolate-resistant parasites were used to infect a culture of HepG2 cells that were pre-incubated with compounds. Infected hepatocytes emit light due to the luciferase reaction. Assay results are presented as the percent inhibition of light emission compared to control. […]
# Assay type: functional
# applied-conditions: sporozoite, FFLUC_HILL_SLOPE 4.02, FFLUC_R_SQUARED 0.256, PBLUC_HILL_SLOPE 1.51, PBLUC_R_SQUARED 0.42, read-out: LUCIFERASE INFECTION ASSAY - IC50
experimental-readout: IC50 (nM)
Expressed in nM, but write only the number.

Which value of IC50 has been reported for CC(C)NC(=O)N1CCCC(C(=O)Nc2nc3ccccc3[nH]2)C1 (stereo unspecified) in the records? 935
